Molecular target: C5a receptor (Homo sapiens)
Sequence (P21730 1-350): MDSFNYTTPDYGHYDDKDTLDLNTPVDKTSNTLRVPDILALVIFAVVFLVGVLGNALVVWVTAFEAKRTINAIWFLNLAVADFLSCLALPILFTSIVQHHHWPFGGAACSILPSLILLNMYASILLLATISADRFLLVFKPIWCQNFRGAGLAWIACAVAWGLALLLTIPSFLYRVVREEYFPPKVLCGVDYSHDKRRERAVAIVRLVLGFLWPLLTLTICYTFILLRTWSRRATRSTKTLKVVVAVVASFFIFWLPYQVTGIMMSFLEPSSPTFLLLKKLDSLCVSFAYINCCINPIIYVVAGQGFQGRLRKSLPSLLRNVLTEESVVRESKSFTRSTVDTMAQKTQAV
Assay: Anaphylatoxin (C5a) receptor binding Ki determination, 125I-C5a on PMNL membrane fragments
Details: read-out: Ki (In vitro C5a Receptor Binding Potency)
Where a SMILES comes first, the peptide text is derived from it. [ ]: non-standard residue; d: D form. The star is where a group is joined. ξ: configuration not given here. X9 = CN(CCCc1ccccc1)[C@@H](CC1CCCCC1)C(=O)*; d(hhPhe) = N[C@H](CCCc1ccccc1)C(=O)O; X4 = O=C(C=Cc1ccccc1[N+](=O)[O-])*; Cha = N[C@@H](CC1CCCCC1)C(=O)O; ξhhPhe = NC(CCCc1ccccc1)C(=O)O; X8 = c1ccc(CCC*)cc1; Ahx = NCCCCCC(=O)O
readoutName: Ki (µM)

INSERT INTO measurements (compound, readoutname, valuereported) VALUES
  ('CC(C)C[C@H](NC(=O)CNC(=O)[C@H](CC1CCCCC1)N(C)CCCc1ccccc1)C(=O)N[C@H](CCCc1ccccc1)C(=O)N[C@@H](CCCNC(=N)N)C(=O)O [Example 103] (X9-GL[d(hhPhe)]R-OH)', 'Ki', 1.32),
  ('CC(C)C[C@H](NC(=O)CNC(=O)C(N)CCCc1ccccc1)C(=O)N[C@H](CCCc1ccccc1)C(=O)N[C@@H](CCCNC(=N)N)C(=O)O (single isomer, unassigned) [Example 104]', 'Ki', 2.4),
  ('CC(C)C[C@H](NC(=O)[C@H](C)NC(=O)[C@H](CC1CCCCC1)NC(=O)[C@@H]1CCCN1C(=O)[C@H](CCCCN)NC(=O)CN)C(=O)N[C@H](CSCCCc1ccccc1)C(=O)N[C@@H](CCCNC(=N)N)C(=O)O [Example 22] (H-GKP[Cha]AL[dC](X8)R-OH)', 'Ki', 4.7),
  ('CC(C)C[C@H](NC(=O)CNC(=O)C=Cc1ccccc1[N+](=O)[O-])C(=O)N[C@H](CCCc1ccccc1)C(=O)N[C@@H](CCCNC(=N)N)C(=O)O [Example 107] (X4-GL[d(hhPhe)]R-OH)', 'Ki', 0.087),
  ('CC(C)C[C@H](NC(=O)[C@H](C)NC(=O)[C@H](CC1CCCCC1)NC(=O)[C@@H]1CCCN1C(=O)CCCCCN)C(=O)NC(CCCc1ccccc1)C(=O)N[C@@H](CCCNC(=N)N)C(=O)O (stereo partly shown) [Example 81] (H-[Ahx]P[Cha]AL[ξhhPhe]R-OH)', 'Ki', 0.11),
  ('CC(C)C[C@H](NC(=O)CNC(=O)C=C1CNc2ccccc21)C(=O)N[C@H](CCCc1ccccc1)C(=O)N[C@@H](CCCNC(=N)N)C(=O)O (single isomer, unassigned) [Example 66]', 'Ki', 0.046),
  ('CC(C)C[C@H](NC(=O)[C@@H]1CCCN1C(=O)[C@H](CC1CCCCC1)NC(=O)CNC(=O)CCCCCN)C(=O)NC(CCCc1ccccc1)C(=O)N[C@@H](CCCNC(=N)N)C(=O)O (single isomer, unassigned) [Example 110]', 'Ki', 9.3),
  ('CC(C)C[C@H](NC(=O)[C@H](C)NC(=O)[C@H](CC1CCCCC1)NC(=O)CNC(=O)CCCCCN)C(=O)NC(CCCc1ccccc1)C(=O)N[C@@H](CCCNC(=N)N)C(=O)O (single isomer, unassigned) [Example 33]', 'Ki', 0.68),
  ('CC(C)C[C@H](NC(=O)CNC(=O)[C@@H](CC1CCCCC1)NC(=O)CCCCCN)C(=O)NC(CCCc1ccccc1)C(=O)N[C@@H](CCCNC(=N)N)C(=O)O (single isomer, unassigned) [Example 34]', 'Ki', 21.6),
  ('CC(C)C[C@H](NC(=O)CNC(=O)[C@H](CC1CCCCC1)NC(=O)CN)C(=O)NC(CCCc1ccccc1)C(=O)N[C@@H](CCCNC(=N)N)C(=O)O (single isomer, unassigned) [Example 73]', 'Ki', 1.99),
  ('CC(C)C[C@@H](NC(=O)CNC(=O)[C@H](CC1CCCCC1)NC(=O)CCCCCN)C(=O)NC(CCCc1ccccc1)C(=O)N[C@@H](CCCNC(=N)N)C(=O)O (single isomer, unassigned) [Example 99]', 'Ki', 4.8),
  ('CC(C)C[C@H](NC(=O)[C@@H]1CCCN1C(=O)[C@H](CC1CCCCC1)NC(=O)CCCCCN)C(=O)NC(CCCc1ccccc1)C(=O)N[C@@H](CCCNC(=N)N)C(=O)O (mixture of isomers)', 'Ki', 3.6),
  ('N=C(N)NCCC[C@H](NC(=O)C(CCCc1ccccc1)NC(=O)[C@@H](Cc1ccccc1)NC(=O)CNC(=O)[C@H](CC1CCCCC1)NC(=O)CCCCCN)C(=O)O (mixture of isomers)', 'Ki', 6.5);
